What normalized growth was measured for each of the following?
# EXPERIMENT_SUMMARY: chemical genetic growth profiling, strain panel (AID 1159580);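 note: tested at 20 µM; growth read once vehicle control cultures reached saturation at 30 °C; 1 = growth at the plate median or of vehicle wells; lower values mean less growth of the strain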
# RECORDED_CONDITIONS: S. cerevisiae deletion strains, growth OD, locus YLL001W, strain dnm1, stronger effect = lower value
Hit rate of the full screen: of about 5,500 compounds, about 2,000 (36%) were called active. About 18% were inconclusive and are not listed. Some of the results follow.

* CC(=O)NO | 0.922 (inactive)
* CC1(C)S[C@@H]2[C@H](NC(=O)[C@H](C(=O)O)c3cccs3)C(=O)N2[C@H]1C(=O)O | 0.999 (inactive)
* Cc1onc(-c2ccccc2)c1C(=O)NC1C(=O)N2[C@@H]1SC(C)(C)[C@@H]2C(=O)O (some centres not stated) | 1.02 (inactive)

Record normalized growth per entry; entries follow.
1. C#C[C@]1(O)CCC2C3CCC4=Cc5oncc5C[C@]4(C)C3CC[C@@]21C (some centres not stated)
2. NC(=O)NO

Outgoing:
0.921 (inactive)
1.01 (inactive)

Hey, can you go through the list below and give me normalized growth for every item?
1. C[C@]12CCC(=O)C=C1CCC1C2C(=O)C[C@@]2(C)C1CC[C@]2(O)C(=O)CO (some centres not stated)
2. C#CC1(O)CCC2C3CCC4=CC(=O)CCC4(C)C3CCC21C (configuration not stated)
3. C[C@]12CCC(=O)C=C1CCC1C2[C@@H](O)C[C@@]2(C)C1CC[C@]2(O)C(=O)COC(=O)CCC(=O)O (some centres not stated)

Outgoing:
1.03 (inactive)
1 (inactive)
1.01 (inactive)

Attribution: PubChem BioAssay AID1159580
